- Target: HIV-1 JR-CSF Env I414A (HIV-1 (isolate JR-CSF)) (UniProt P20871)
- Assay Method Text: cell-based or functional assay

Binder | Fold IC50 increase relative to wild-type (fold)
PGT-123 (antibody, V domains shown) VH: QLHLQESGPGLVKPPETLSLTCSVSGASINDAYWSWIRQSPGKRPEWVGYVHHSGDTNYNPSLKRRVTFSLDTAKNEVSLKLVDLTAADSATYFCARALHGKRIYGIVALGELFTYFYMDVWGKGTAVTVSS VL: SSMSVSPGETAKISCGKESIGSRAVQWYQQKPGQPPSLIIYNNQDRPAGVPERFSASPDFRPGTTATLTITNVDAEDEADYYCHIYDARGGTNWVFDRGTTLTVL | 0.3
PGT-125 (antibody, V domains shown) VH: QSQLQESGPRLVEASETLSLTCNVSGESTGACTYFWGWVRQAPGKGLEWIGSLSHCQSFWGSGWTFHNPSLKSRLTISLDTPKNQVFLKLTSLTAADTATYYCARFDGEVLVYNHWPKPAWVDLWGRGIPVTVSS VL: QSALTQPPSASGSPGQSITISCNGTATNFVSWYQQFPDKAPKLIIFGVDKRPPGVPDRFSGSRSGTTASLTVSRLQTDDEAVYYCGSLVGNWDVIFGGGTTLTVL | 0.3
